readout.name: melting point (°C)
One number for each entry, in °C.

Guide cases for melting point, answers given:
[
  {
    "sample.smiles": "O=C(c1cn2ccsc2n1)N1[C@H]2CC[C@H](c3cc(C(F)F)nc4ncnn34)[C@@H]1CC2",
    "reported.measurement": 264.8
  },
  {
    "sample.smiles": "CCn1ccc2cc(C(=O)N3[C@H]4CC[C@H](c5cc(C(F)F)nc6ncnn56)[C@@H]3CC4)ccc21",
    "reported.measurement": 221.75
  }
]

Fill in melting point for each of the 2 compounds listed.
1. C[C@@H]1CCN(C(=O)c2ccc3ncc(F)cc3c2)C[C@H]1c1cc(C(F)F)nc2ncnn12
2. COc1cc(C(=O)N2CC[C@@H](C)[C@H](c3cc(C)nc4ncnn34)C2)c(F)cn1

Result ::
183.18
178.64

----------
So I've got a bunch of compounds here, and I need their IC50 values.
biological target: Human recombinant PDE10A (hPDE10A) (Homo sapiens, UniProt Q9Y233); construct: His tag (inferred from metal chelate purification); made in house; host or cells: Sf9 insect cells (baculovirus); test: In vitro assay PDE10A, human clone (SPA, 3H-cAMP hydrolysis); assay type: biochemical; conditions: human clone (h), default; read-out: hPDE10A2 pIC50 (converted)
Sequence (Q9Y233 267-1055): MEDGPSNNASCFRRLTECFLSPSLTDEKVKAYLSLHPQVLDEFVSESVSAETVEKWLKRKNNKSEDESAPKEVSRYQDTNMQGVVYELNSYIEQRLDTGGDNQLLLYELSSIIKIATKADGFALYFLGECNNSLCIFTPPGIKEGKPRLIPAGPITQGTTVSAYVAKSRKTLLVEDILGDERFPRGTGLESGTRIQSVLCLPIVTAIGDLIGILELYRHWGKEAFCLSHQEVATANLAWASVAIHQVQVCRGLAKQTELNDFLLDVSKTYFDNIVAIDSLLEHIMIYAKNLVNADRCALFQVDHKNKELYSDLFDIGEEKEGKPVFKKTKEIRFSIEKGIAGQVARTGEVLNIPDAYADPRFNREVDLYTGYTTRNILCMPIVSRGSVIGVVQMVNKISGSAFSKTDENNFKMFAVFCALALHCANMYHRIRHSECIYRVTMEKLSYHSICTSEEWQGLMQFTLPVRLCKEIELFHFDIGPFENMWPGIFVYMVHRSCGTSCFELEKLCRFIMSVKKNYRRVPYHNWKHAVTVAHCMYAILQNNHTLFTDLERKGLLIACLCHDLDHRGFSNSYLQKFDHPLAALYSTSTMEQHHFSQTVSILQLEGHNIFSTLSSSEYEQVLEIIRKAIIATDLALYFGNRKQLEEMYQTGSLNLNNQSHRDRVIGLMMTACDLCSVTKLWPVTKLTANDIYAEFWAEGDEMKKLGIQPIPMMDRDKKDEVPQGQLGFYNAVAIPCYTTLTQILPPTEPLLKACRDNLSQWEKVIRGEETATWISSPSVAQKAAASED
One number for each entry, in nM.

[
  {
    "compound": "C[C@@H]1CCN(C(=O)c2cc(C(C)(C)C)cc(C(C)(C)C)c2)C[C@H]1c1cc(C(F)F)nc2ncnn12 [Compound 259]",
    "IC50, nM": 1700
  }
]

Fill in IC50 for each of the 5 compounds listed.
1. C[C@@H]1CCN(C(=O)c2ccc(N)nc2)C[C@H]1c1cc(C(F)F)nc2ncnn12 [Compound 181]
2. C[C@@H]1CCN(C(=O)c2ccc(Cl)cn2)C[C@H]1c1cc(C(F)F)nc2ncnn12 [Compound 154]
3. Cc1cc(C)nc(C(=O)N2CC[C@@H](C)[C@H](c3cc(C(F)F)nc4ncnn34)C2)c1 [Compound 137]
4. C[C@@H]1CCN(C(=O)c2cccc3c2ncn3C)C[C@H]1c1cc(C(F)F)nc2ncnn12 [Compound 178]
5. Cc1c(C(=O)N2CC[C@@H](C)[C@H](c3cc(C(F)F)nc4ncnn34)C2)oc2ccccc12 [Compound 48]

Result ::
1. 309
2. 2750
3. 1350
4. 794
5. 43.7

Fill in IC50 for each of the 8 compounds listed.
1. Cc1cc([C@H]2CN(C(=O)c3cc(C)c(F)c(C)c3)CC[C@@H]2C)n2ncnc2n1 [Compound 217]
2. Cc1cc([C@@H]2CN(C(=O)c3ccc4occ(C)c4c3)CC[C@H]2C)n2ncnc2n1 [Compound 5]
3. Cc1cnoc1C(=O)N1CC[C@@H](C)[C@H](c2cc(C(F)F)nc3ncnn23)C1 [Compound 160]
4. Cc1csc(C(=O)N2CC[C@@H](C)[C@H](c3cc(C(F)F)nc4ncnn34)C2)c1 [Compound 126]
5. C[C@@H]1CCN(C(=O)c2ccc3c(ccn3CCF)c2)C[C@H]1c1cc(C(F)F)nc2ncnn12 [Compound 89]
6. Cc1cc([C@@H]2CN(C(=O)c3cc(Cl)ncc3C)CC[C@H]2C)n2ncnc2n1 [Compound 18]
7. C[C@@H]1CCN(C(=O)c2ccc3cc[nH]c3c2)C[C@H]1c1cc(C(F)F)nc2ncnn12 [Compound 106]
8. Cc1cc([C@@H]2CN(C(=O)c3cc4cccnc4nc3C(F)(F)F)CC[C@H]2C)n2ncnc2n1 [Compound 13]

Result ::
4790
8.91
1020
112
20.9
195
21.4
347

Fill in IC50 for each of the 2 compounds listed.
1. Cc1cc(C)cc(C(=O)N2CC[C@@H](C)[C@H](c3cc(C(F)F)nc4ncnn34)C2)c1 [Compound 123]
2. C[C@@H]1CCN(C(=O)c2c[nH]c3ccc(F)cc23)C[C@H]1c1cc(C(F)F)nc2ncnn12 [Compound 112]

Result ::
91.2
47.9
